- system name: Glucose transporter (Leishmania mexicana) (UniProt O61059)
- measurement notes: ST_JUDE_LEISH: Cytotoxicity at 2uM final concentration against transgenic Leishmania Mexicana promastigotes LmGT2 that are glucose transport deficient and complemented with the L. Mexicana glucose transporter 2. Activity is measured by DNA content using SYBR green in vitro
- Assay type: functional
assay endpoint: inhibition (%)
Note: unit % is implicit; provide only the numeric part.

# count of solved cases: 2
| molecule | assay endpoint | value units | data value |
| --- | --- | --- | --- |
| COc1cc(OC)c2c(c1Cl)O[C@]1(C2=O)C(=O)C(Cc2ccccc2)(Cc2ccccc2)C(=O)C[C@H]1C | inhibition | % | 2.6 |
| C=CCOC(=O)N1CCC(CNCc2cccc(-c3ccc(-c4nc5cc(C(F)(F)F)ccc5[nH]4)cc3)c2)C1 (stereo not drawn) | inhibition | % | 1.63 |

Using known records, supply inhibition for `CCCCC(=O)Nc1nc2ccc([N+](=O)[O-])cc2s1`
-0.58

Using known records, supply inhibition for `Cn1nccc1C(=O)NCCNCc1ccc(-c2ccc(-c3nc4cc(C(F)(F)F)ccc4[nH]3)cc2)cc1`
4.43

Using known records, supply inhibition for `Cc1cc(N2CCCC2)nc(Nc2ccc(NC(=O)CC(C)C)cc2)n1`
2.23

Using known records, supply inhibition for `Cc1nc(N)nc(N)c1-c1cc(Cl)c(Cl)c(Cl)c1`
1.22

Using known records, supply inhibition for `Cc1cccc2nc(-c3ccc(-c4ccc(CN5CCN(CCN6CCOCC6)CC5)cc4)cc3)[nH]c12`
-1.08

Using known records, supply inhibition for COc1ccc2nccc([C@@H](O)CN3CCC(NC(=O)C(c4cc5ccccc5o4)N4CCN(c5ccccc5)CC4)CC3)c2c1 (stereo partly drawn)
2.54
